src = PubChem BioAssay (NCI)

# protocol_summary: NCI Yeast Anticancer Drug Screen. Data for the rad18 strain (AID 177)
# condition: S. cerevisiae rad18 mutant growth inhibition; at 33.0 µM; active compounds read high
About 79,000 compounds went through this panel and 15% of them were active in at least one assay; those are over-represented in the sample as a whole.
quantity_name: growth inhibition (%)
Record the value in %, omitting the unit from your answer.

According to the records, this compound COC1C=COC2(C)Oc3c(C)c(O)c4c(c3C2=O)/C(=N/C2CCC(O)OC2C)C=C(NC(=O)/C(C)=C\C(=O)C2CC2C(O)C(C)C(O)C(C)C(OC(C)=O)C1C)C4=O (stereo not given) displays growth inhibition of 10

According to the records, this compound `c1ccc2c(c1)c1ncccc1c1nccnc21` displays growth inhibition of -1

According to the records, this compound `CN(N=O)N1C(=O)SCC(c2ccccc2)(c2ccccc2)C1=O` displays growth inhibition of 28

According to the records, this compound C[CH2][Sn]([CH2]C)([O]C(=O)C(OC(C)=O)c1ccccc1)[O]C(=O)C(OC(C)=O)c1ccccc1 (stereo not given) displays growth inhibition of 77

According to the records, this compound `[O-][n+]1c2ccc(O)cc2nc2ccc(Cl)cc21` displays growth inhibition of 79

According to the records, this compound `S=c1[nH]nc(Nc2ccc(Cl)cc2)s1` displays growth inhibition of 38

According to the records, this compound `Cc1cc(O)cc(O)c1N=Nc1ccc([N+](=O)[O-])cc1` displays growth inhibition of 11

According to the records, this compound O=C(O)C1OC1(c1cccc(Cl)c1)c1ccccc1Cl (stereo not given) displays growth inhibition of 57

According to the records, this compound `O=C1CSc2cc([N+](=O)[O-])ccc2N1` displays growth inhibition of -2

According to the records, this compound `Cc1cc(S(=O)(=O)/N=C(/NN)NNc2cccc(C(F)(F)F)n2)c(S)cc1Cl` displays growth inhibition of -3

According to the records, this compound `CN(C)C[C@H]1CC[C@@H](CN(C)C)C1=O` displays growth inhibition of 36

According to the records, this compound `CC(C)NC(=O)OCc1c(COC(=O)NC(C)C)c(-c2ccc(Cl)c(Cl)c2)n2c1CCC2` displays growth inhibition of 34

According to the records, this compound `S=C(Nc1ccc(Cl)c(Cl)c1)SCc1ccc2c(c1)OCO2` displays growth inhibition of 99

According to the records, this compound `O=C(Nc1ccccc1)OCCc1ccc(Cl)c(Cl)c1` displays growth inhibition of 45

According to the records, this compound `CC(C)[N+]([O-])(CCCNc1c2ccccc2nc2cccc([N+](=O)[O-])c12)C(C)C` displays growth inhibition of 97

According to the records, this compound `COc1ccc(/C=C2\SC(=S)N(/C=C/c3nc4ccccc4[nH]c3=O)C2=O)cc1OC` displays growth inhibition of 67

According to the records, this compound `S=C(Nc1ccc(Cl)cc1)SC1CCCCC1` displays growth inhibition of 97

According to the records, this compound CCCCCCCC1(N=[N+]=[N-])C(=O)c2ccccc2N(C)C1=O (stereo not given) displays growth inhibition of 67

According to the records, this compound `Cc1ccc2ccc3cccc4ccc1c2c34` displays growth inhibition of 60

According to the records, this compound COc1cc(C2C3=C(COC3=O)Oc3cc4c(cc32)OCO4)ccc1O (stereo not given) displays growth inhibition of 32

According to the records, this compound O=C(O)C1CCCCC1c1c2ccc(=O)c(O)c-2oc2c(O)c(O)ccc12 (stereo not given) displays growth inhibition of 20

According to the records, this compound `O=C(Nc1ccc(Cl)cc1)OCC#CCCl` displays growth inhibition of 10

According to the records, this compound COC(=O)C1=C(C)NC(C)=C(C(=O)OCCCN2CCC(c3ccccc3)(c3ccccc3)CC2)C1c1cccc([N+](=O)[O-])c1 (stereo not given) displays growth inhibition of 97

According to the records, this compound CCC[CH2][Ge]([CH2]CCC)([CH2]CCC)[O]C(=O)C(OC)c1ccccc1 (stereo not given) displays growth inhibition of 80

According to the records, this compound `CC(=O)ON1C(=O)c2cccc3cccc(c23)C1=O` displays growth inhibition of 97

According to the records, this compound `CC(=O)OCCOCNC(=S)N/N=C(\C)c1cnccn1` displays growth inhibition of 32

According to the records, this compound `CCC/C(Cl)=N\OC(=O)Nc1ccc(Br)cc1` displays growth inhibition of 97

According to the records, this compound CCC(C)COC(=O)c1ccc(N=Cc2ccc(C=Nc3ccc(C(=O)OCC(C)CC)cc3)cc2)cc1 (stereo not given) displays growth inhibition of 13

According to the records, this compound `O=C(CCCN1CCC(O)(c2ccc(Cl)cc2)CC1)c1ccc(F)cc1` displays growth inhibition of 58

According to the records, this compound C=CC(C)(O)CCC1C(=C)C(O)CC2C(C)(C)CCCC12C (stereo not given) displays growth inhibition of 49

According to the records, this compound `FC(F)(F)c1nc2nc(Cl)c(Cl)nc2n1CCCN1CCOCC1` displays growth inhibition of 31

According to the records, this compound `O=[N+]([O-])c1ccc2nc3ccccc3cc2c1` displays growth inhibition of 87

According to the records, this compound `Cc1ccc(Cl)c2[nH]c(-c3ccccc3)cc(=O)c12` displays growth inhibition of -24

According to the records, this compound `O=C(N=Nc1cc(Cl)ccc1Cl)NNc1cc(Cl)ccc1Cl` displays growth inhibition of -21

According to the records, this compound `CCN(CC)[P+](c1ccccc1O)(N(CC)CC)N(CC)CC` displays growth inhibition of 59

According to the records, this compound `CC(C)/C(Cl)=N\OC(=O)Nc1cccc(Cl)c1` displays growth inhibition of -24

According to the records, this compound CCCCCCCCC/C=C/C=C/C(=O)NCC(=O)NC1C(O)C(O)C(Nc2ncnc3nc[nH]c23)OC1C(O)CO (stereo not given) displays growth inhibition of 53

According to the records, this compound CCCCCCCCCCCCCCC(C(=O)[O-])[n+]1ccccc1 (stereo not given) displays growth inhibition of 81

According to the records, this compound `S=C(N/N=C/c1ccccn1)Nc1ccc(Cl)cc1` displays growth inhibition of 2

According to the records, this compound `O=[N+]([O-])c1cc2no[n+]([O-])c2cc1N1CCCCC1` displays growth inhibition of 97

According to the records, this compound `CCN(CC)CCC(=O)c1ccc(Oc2ccc(F)cc2)cc1` displays growth inhibition of 52

According to the records, this compound `CNC(=O)OCc1c(COC(=O)NC)c(-c2ccc(-c3ccccc3)cc2)n(C)c1C` displays growth inhibition of -42

According to the records, this compound `Cn1c(=O)c2ccccc2c2ccccc21` displays growth inhibition of 83

According to the records, this compound `CC1CCN(CCC(=O)c2ccc(Cl)cc2)CC1` displays growth inhibition of 28

According to the records, this compound `CSc1nc(=S)[nH]c2c1c(C)nn2-c1ccccc1` displays growth inhibition of -5

----------
# protocol_summary: NCI Yeast Anticancer Drug Screen. Data for the rad50EPP+ strain (AID 151);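 note: 0% = growth of vehicle-treated control cultures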
# condition: S. cerevisiae rad50 mutant strain, at 11.0 µM
# Experimental: Growth inhibition of yeast strains with defined genetic alterations is measured as a screen for potential anti-cancer activity. Selected strains with alterations in DNA damage repair or cell cycle control were exposed to compounds and growth inhibition was measured relative to vehicle treated controls. The strain used in this assay is rad50EPP+
The panel holds about 79,000 compounds, 15% with a hit somewhere; the sample as a whole holds those more often. Active and inactive are the calls of the source. Cut-off read from the data, not from the text of the source: active = growth inhibition above about 70%; inactive = the rest.
Your response should consist of one outcome taken from active, inactive

Assay result, entry `c1ccc2c(c1)Oc1cccc3cccc-2c13` — outcome? inactive

Assay result, entry `CCOc1ccc2c(c1)c(CC(=O)O)cn2C` — outcome? active

Assay result, entry `CC1=C(C)Cc2c(O)ccc(O)c2C1` — outcome? inactive

Assay result, entry O=C(O)C1CCCCC1c1c2ccc(=O)c(O)c-2oc2c(O)c(O)ccc12 (configuration not stated) — outcome? inactive

Assay result, entry OCC(Cn1cncn1)(c1ccc(F)cc1F)n1cncn1 (configuration not stated) — outcome? active

Assay result, entry `O=S(=O)(CCCl)c1ccccc1Cl` — outcome? inactive

Assay result, entry `CCOC(=O)C1=C(C(=O)c2ccccc2)C(c2ccccc2[N+](=O)[O-])C(C(=O)c2ccccc2)=C(C(=O)OCC)N1` — outcome? inactive

Assay result, entry `O=C1Nc2ccccc2/C1=C/COc1ccccc1` — outcome? active

Assay result, entry `O=Cc1cccc2ccc3ccccc3c12` — outcome? inactive

Assay result, entry `CCCCCCCCCCCCCCCCCCNC` — outcome? inactive

Assay result, entry `CN(C)CCOc1ccc2c(c1)C/C(=C/c1ncc([N+](=O)[O-])n1C)C2=O` — outcome? inactive

Assay result, entry `O=C(c1ccc(Cl)cc1Cl)C(Cl)Cl` — outcome? inactive

----------
I'd appreciate it if you could supply growth inhibition values for the items below.
# protocol_summary: NCI Yeast Anticancer Drug Screen. Data for the mec2-1 strain (AID 157)
# condition: S. cerevisiae mec2-1 strain, at 100.0 µM, active compounds read high
The panel holds about 79,000 compounds, 15% with a hit somewhere; the sample as a whole holds those more often.
Record the value in %, omitting the unit from your answer.

According to the records, this compound `O=c1ssc2ncccc12` displays growth inhibition of 97

According to the records, this compound `CN(C)c1ccc(C(C#N)=C(C#N)C#N)cc1` displays growth inhibition of 18

According to the records, this compound `COC(=O)c1cc(-c2ccc(C)cc2)[nH]c(=O)c1C#N` displays growth inhibition of 10

According to the records, this compound `Cc1cc(I)ccc1N` displays growth inhibition of 92

According to the records, this compound CC(C)C1=CCC2C(=C1)CCC1C(C)(C(=O)O)CCCC21C (configuration not stated) (tested in a mixture with another compound) displays growth inhibition of 94

According to the records, this compound `O=[N+]([O-])c1ccc(=S)[nH]c1` displays growth inhibition of 99

According to the records, this compound `[N-]=N[N+]#I1OC(C(F)(F)F)(C(F)(F)F)c2ccccc21` displays growth inhibition of 99

According to the records, this compound `COc1ccc(O)c(/C=N\Nc2ccccc2)c1` displays growth inhibition of -2

According to the records, this compound `CCN(CC)CCN1C(=O)c2cccc3cc(OC)cc(c23)C1=O` displays growth inhibition of 16

According to the records, this compound `CC(=O)[O][Bi]([c]1ccccc1)[c]1ccccc1` displays growth inhibition of 95

According to the records, this compound `N/C(=N\OC(=O)NC(Cl)=C(Cl)Cl)c1cc(C(F)(F)F)cc(C(F)(F)F)c1` displays growth inhibition of 95

According to the records, this compound `CN(C)c1nc2sc3c(c2c(=O)o1)CCCC3` displays growth inhibition of 39
